# Test system: Echinochloa oryzicola
# PROTOCOL TEXT: Pre-emergence herbicidal activity against Echinochloa oryzicola at 100 g a.i/ha measured after 14 days
# Assay type: functional, organism-based
Activity calls are given as the source filed them. The calls are words filed in the database; no cut-off is given here.
Classes used: active, inactive

>  <CHEMICAL STRING>
Cn1cc(C(=O)Nc2cccc(S(C)(=O)=O)c2)c(Oc2cccc(C(F)(F)F)c2)n1

>  <CATEGORY>
inactive

$$$$
>  <CHEMICAL STRING>
CCCONC(=O)c1cn(C)nc1Oc1cccc(C(F)(F)F)c1

>  <CATEGORY>
active

$$$$
>  <CHEMICAL STRING>
Cn1cc(C(=O)Nc2ccccc2)c(OCc2cccc(C(F)(F)F)c2)n1

>  <CATEGORY>
active

$$$$
